- test-parameters: in 1-propoxy-2-propanol, 323.15 K
endpoint: solubility (mole fraction)

{"columns": ["input-smiles", "reported-measurement"],
 "data": [
  ["O=P(Oc1ccccc1)(Oc1ccccc1)N1CCN(P(=O)(Oc2ccccc2)Oc2ccccc2)CC1", 0.00141],
  ["O=P(NCc1cccc(CNP(=O)(Oc2ccccc2)Oc2ccccc2)c1)(Oc1ccccc1)Oc1ccccc1", 0.00182]
]}

----------
Form field: solubility (mole fraction) (one value per entry).
- test-parameters: in 1-propoxy-2-propanol, 308.15 K

{"columns": ["input-smiles", "solubility (mole fraction)"],
 "data": [
  ["O=P(NCc1cccc(CNP(=O)(Oc2ccccc2)Oc2ccccc2)c1)(Oc1ccccc1)Oc1ccccc1", 0.000964],
  ["O=P(Oc1ccccc1)(Oc1ccccc1)N1CCN(P(=O)(Oc2ccccc2)Oc2ccccc2)CC1", 0.000715]
]}

----------
- test-parameters: in 1-methoxy-2-propyl acetate, 333.15 K
Here the recorded solubility (mole fraction) is given for each entry.

{"columns": ["input-smiles", "solubility (mole fraction)"],
 "data": [
  ["O=P(NCc1cccc(CNP(=O)(Oc2ccccc2)Oc2ccccc2)c1)(Oc1ccccc1)Oc1ccccc1", 0.00891],
  ["O=P(Oc1ccccc1)(Oc1ccccc1)N1CCN(P(=O)(Oc2ccccc2)Oc2ccccc2)CC1", 0.0017]
]}

----------
- test-parameters: in 1-methoxy-2-propyl acetate, 343.15 K

{"columns": ["input-smiles", "solubility (mole fraction)"],
 "data": [
  ["O=P(NCc1cccc(CNP(=O)(Oc2ccccc2)Oc2ccccc2)c1)(Oc1ccccc1)Oc1ccccc1", 0.0115],
  ["O=P(Oc1ccccc1)(Oc1ccccc1)N1CCN(P(=O)(Oc2ccccc2)Oc2ccccc2)CC1", 0.00248]
]}

----------
- test-parameters: in 1-methoxy-2-propanol, 338.15 K
# reported solubility (mole fraction); entries follow
endpoint: solubility (mole fraction)

{"columns": ["input-smiles", "reported-measurement"],
 "data": [
  ["O=P(Oc1ccccc1)(Oc1ccccc1)N1CCN(P(=O)(Oc2ccccc2)Oc2ccccc2)CC1", 0.00367],
  ["O=P(NCc1cccc(CNP(=O)(Oc2ccccc2)Oc2ccccc2)c1)(Oc1ccccc1)Oc1ccccc1", 0.00374]
]}

----------
- test-parameters: in 2-(2-methoxypropoxy) propanol, 318.15 K

{"columns": ["input-smiles", "solubility (mole fraction)"],
 "data": [
  ["O=P(NCc1cccc(CNP(=O)(Oc2ccccc2)Oc2ccccc2)c1)(Oc1ccccc1)Oc1ccccc1", 0.00714],
  ["O=P(Oc1ccccc1)(Oc1ccccc1)N1CCN(P(=O)(Oc2ccccc2)Oc2ccccc2)CC1", 0.00236]
]}

----------
solubility (mole fraction) for assorted molecules
- test-parameters: in 2-(2-methoxypropoxy) propanol, 293.15 K
endpoint: solubility (mole fraction)

{"columns": ["input-smiles", "reported-measurement"],
 "data": [
  ["O=P(NCc1cccc(CNP(=O)(Oc2ccccc2)Oc2ccccc2)c1)(Oc1ccccc1)Oc1ccccc1", 0.00267],
  ["O=P(Oc1ccccc1)(Oc1ccccc1)N1CCN(P(=O)(Oc2ccccc2)Oc2ccccc2)CC1", 0.000974]
]}

----------
solubility (mole fraction) listing for selected compounds.
- test-parameters: in 1-propoxy-2-propanol, 293.15 K

{"columns": ["input-smiles", "solubility (mole fraction)"],
 "data": [
  ["O=P(Oc1ccccc1)(Oc1ccccc1)N1CCN(P(=O)(Oc2ccccc2)Oc2ccccc2)CC1", 0.000353],
  ["O=P(NCc1cccc(CNP(=O)(Oc2ccccc2)Oc2ccccc2)c1)(Oc1ccccc1)Oc1ccccc1", 0.000508]
]}
